tested on: sigma-1 receptor (σ1R); assay: σ1R radioligand binding ([3H](+)-pentazocine); parameters: species or system guinea pig; details: ratio of σ2R Ki to σ1R Ki
Reported Property: σ2/σ1 ratio
Response field accepts a number only; no unit should be typed.

INSERT INTO results (compound, observed) VALUES
  ('c1ccc(Cc2ccc(OCCCN3CCCCC3)cc2)cc1', 8.5),
  ('c1ccc(Oc2ccc(OCCCN3CCC(c4ccncc4)CC3)cc2)cc1', 0.7),
  ('c1ccc(Nc2ccc(OCCCN3CCCCC3)cc2)cc1', 24.2),
  ('c1ccc(Nc2ccc(OCCCN3CCC(c4ccncc4)CC3)cc2)cc1', 8.8),
  ('CC1CCCN(CCCOc2ccc(-c3ccccc3)cc2)C1 (stereo not shown)', 11.3),
  ('c1ccc(Cc2ccc(OCCCN3CCC(c4ccncc4)CC3)cc2)cc1', 3.5),
  ('c1ccc(Oc2ccc(OCCCN3CCCCC3)cc2)cc1', 5.7),
  ('c1ccc(-c2ccc(OCCCN3CCCC3)cc2)cc1', 2.7),
  ('CC(C)(C)c1ccc(OCCCCN2CCN(c3cnccn3)CC2)cc1', 3.6);

Now turn to the next compound.
Lab book: σ2/σ1 ratio of `N#Cc1ccc(-c2ccc(OCCCN3CCCCC3)cc2)cc1.O=C(O)C(=O)O` noted as 1.7

The reported numbers originate from paper PMC10388327.
